These entries and their values trace back to ChEMBL document CHEMBL5236571.

inhibition for assorted compounds
Tested on: r(CUG) repeat expansion
Experiment: Inhibition of d(CTG.CAG)90 transcription (unknown origin) assessed as inhibition of r(CUG)90 formation at 10 uM incubated for 3.5 hrs measured after 1.5 hrs in presence of T7 RNA polymerase by SDS-PAGE analysis relative to control
Assay type: nucleic-acid assay
Conditions: Homo sapiens, time 5.0 hrs
Numeric answer only, unit % assumed.

Worked examples, 4 compounds total:
COc1ccc2nc3cc(Cl)ccc3c(NC/C=N/CCCCNc3nc(N)nc(NCCCC/N=C/c4ccc(CNc5nc(N)nc(N)n5)cc4)n3)c2c1 | 19.9
COc1ccc2nc3cc(Cl)ccc3c(NC/C=N/CCCCNC(=O)c3cccc4c(NCCCCNc5nc(N)nc(N)n5)c5ccccc5nc34)c2c1 | 23.2
N=C(NCCCCNc1nc(N)nc(NCc2ccc(/C=N/c3ccc(CNc4nc(N)nc(NCc5ccc(N)cc5)n4)cc3)cc2)n1)c1ccc(C(=N)NCCCCNc2nc(N)nc(NCc3ccc(CO)cc3)n2)cc1 | 34.8
N=C(NCCCCNc1nc(N)nc(NCc2ccc(/C=N/CCCCn3cnc4c(N)ncnc43)cc2)n1)c1ccc(C(=N)NCCCCNc2nc(N)nc(NCc3ccc(/C=N/c4ccc(CNC(=N)c5ccc(C(=N)NCc6ccc(N)cc6)cc5)cc4)cc3)n2)cc1 | 13.9

Now for another entry.
Bench note: what inhibition did "N=C(NCc1ccc(N)cc1)c1ccc(C(=N)NCc2ccc(/N=C/c3ccc(/C=N/CCCCNc4nc(N)nc(NCCCCN)n4)cc3)cc2)cc1" show?
21.3
